target: rabbit reticulocyte 20S proteasome, chymotrypsin-like (CT-L) activity (UniProt G1T4Q9)
Sequence (G1T4Q9 entry or part of it): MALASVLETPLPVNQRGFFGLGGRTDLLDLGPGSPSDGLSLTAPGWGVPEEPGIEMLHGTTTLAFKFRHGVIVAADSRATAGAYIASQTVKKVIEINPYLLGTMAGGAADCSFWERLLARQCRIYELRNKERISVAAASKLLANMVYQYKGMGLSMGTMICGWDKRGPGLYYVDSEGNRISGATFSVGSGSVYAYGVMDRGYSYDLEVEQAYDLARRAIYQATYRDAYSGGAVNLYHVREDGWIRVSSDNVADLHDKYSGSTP
parameter.measured: IC50 (nM)
Give bare numbers, in nM.

Recorded results for 4 molecules are shown here.
{"molecule": "COc1ccc(OCC(=O)N(Cc2nc(-c3ccc(C)cc3)no2)C(C)C)cc1 [Compound 16]", "readout.value": 2490}
{"molecule": "C=CCN(Cc1nc(-c2ccc(OC)cc2)no1)C(=O)COc1ccccc1 [Compound 8]", "readout.value": 1660}
{"molecule": "COc1ccc(-c2noc(CN(C(=O)COc3cccc(C)c3)C(C)C)n2)cc1 [Compound 13]", "readout.value": 2330}
{"molecule": "C=CCN(Cc1nc(-c2ccccc2)no1)C(=O)COc1ccc(C)cc1 [Compound 18]", "readout.value": 330}

Below are 3 molecules. Give each one its IC50.
1. COc1ccc(-c2noc(CN(C(=O)COc3ccc(Br)cc3)C(C)C)n2)cc1 [Compound 12]
2. COc1ccc(-c2noc(CN(C(=O)COc3ccccc3)C(C)C)n2)cc1 [Compound 9]
3. COc1ccc(OCC(=O)N(Cc2nc(-c3cccc(C)c3)no2)C(C)C)cc1 [Compound 5]

Solution:
1. 100
2. 3960
3. 910
